These entries and their values trace back to ChEMBL document CHEMBL1759944.

- target or system: UniProtKB P07650
- test summary: Inhibition of Escherichia coli Thymidine phosphorylase by spectrophotometry
- condition context: read-out: IC50
pIC50: −log10 of the molar value. Counter-ions that a name gives are not always drawn.
measured endpoint: pIC50

[
  {
    "molecule": "N=C1CCCN1Cc1[nH]c(=O)[nH]c(=O)c1Cl [TIPIRACIL HYDROCHLORIDE]",
    "pIC50": 7.44
  },
  {
    "molecule": "CCOC(=O)CN1C(=O)C(=O)N(Cc2ccccc2)C1=O",
    "pIC50": 3.47
  },
  {
    "molecule": "NC(=O)CCN1C(=O)C(=O)N(Cc2ccccc2)C1=O",
    "pIC50": 3.97
  },
  {
    "molecule": "Cc1ccccc1CN1C(=O)C(=O)N(CC(=O)O)C1=O",
    "pIC50": 3.63
  },
  {
    "molecule": "O=C1NC(=O)N(CCc2ccccc2)C1=O",
    "pIC50": 3.99
  }
]

A. CCOC(=O)CN1C(=O)C(=O)N(CCc2ccccc2)C1=O
B. NC(=O)CCN1C(=O)C(=O)N(CCc2ccccc2)C1=O
C. O=C1NC(=O)N(Cc2cccc(Cl)c2)C1=O
D. NC(=O)CCN1C(=O)C(=O)N(Cc2cccc(Cl)c2)C1=O
Falling order of pIC50, please. Note for the reader: the ranking is given by listing the labels in the order requested.
B, D, C, A

1. O=C(O)CN1C(=O)C(=O)N(Cc2ccccc2)C1=O
2. Cc1ccccc1CN1C(=O)NC(=O)C1=O
Lab log: flag the item ( 1 or 2 ) with the smaller pIC50 figure. Use the label to indicate which entry you chose.
1
(1: 3.58, 2: 3.89)

1. O=C(O)CN1C(=O)C(=O)N(CCc2ccccc2)C1=O
2. CCOC(=O)CN1C(=O)C(=O)N(Cc2cccc(Cl)c2)C1=O
Lab log: flag the item ( 1 or 2 ) with the smaller pIC50 figure. Use the label to indicate which entry you chose.
2

* * *

- target or system: Thymidine phosphorylase (Escherichia coli K-12)
- Sequence (P07650 whole entry): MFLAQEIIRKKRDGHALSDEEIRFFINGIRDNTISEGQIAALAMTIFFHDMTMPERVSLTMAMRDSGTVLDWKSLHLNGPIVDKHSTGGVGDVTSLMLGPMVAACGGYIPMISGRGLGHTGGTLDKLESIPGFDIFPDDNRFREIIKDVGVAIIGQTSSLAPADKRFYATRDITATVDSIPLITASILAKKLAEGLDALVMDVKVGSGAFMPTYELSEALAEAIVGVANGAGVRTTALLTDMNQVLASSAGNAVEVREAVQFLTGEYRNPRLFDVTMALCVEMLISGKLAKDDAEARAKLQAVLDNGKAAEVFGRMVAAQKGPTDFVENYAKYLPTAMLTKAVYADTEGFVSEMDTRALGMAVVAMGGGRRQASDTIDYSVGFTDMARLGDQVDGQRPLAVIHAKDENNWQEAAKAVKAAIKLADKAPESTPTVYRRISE
- test summary: Inhibition of Escherichia coli Thymidine phosphorylase by spectrophotometry
- condition context: read-out: IC50
measured endpoint: IC50 (µM)

[
  {
    "structure": "Cc1ccccc1CN1C(=O)C(=O)N(CCC(N)=O)C1=O",
    "target or system": "Thymidine phosphorylase (Escherichia coli K-12)",
    "unit name": "µM",
    "IC50": 88
  }
]

1. O=C1NC(=O)N(Cc2ccccc2)C1=O
2. CCOC(=O)CN1C(=O)C(=O)N(Cc2ccccc2C)C1=O
Lab log: flag the item ( 1 or 2 ) with the smaller IC50 figure. Use the label to indicate which entry you chose.
1
(1: 115 µM, 2: 303 µM)
